Assay: Naringenin concentration in milk of breastfeeding mothers on naringenin-restricted diet, before and after 250 ml red grapefruit juice (HPLC after deconjugation)
Type: in vivo
Details: female, human, in vivo, Mean naringenin concentration in human milk
value type: concentration at -12 h (nM)
Answer with a number only, understood to be in nM.

Give its concentration at -12 h value. Item: "O=C1C[C@@H](c2ccc(O)cc2)Oc2cc(O)cc(O)c21"
702

----------
Assay: Naringenin concentration in milk of breastfeeding mothers on naringenin-restricted diet, before and after 250 ml red grapefruit juice (HPLC after deconjugation)
Type: in vivo
Settings: female, human, in vivo, 250 ml, human milk, post-exposure segment, n 14; read-out: Cmax, median
value type: Cmax (nM)
State just the number; it will be interpreted in nM.

# input molecule: "O=C1C[C@@H](c2ccc(O)cc2)Oc2cc(O)cc(O)c21" ; wanted: its Cmax
714

Attribution: paper PMC5628898
